- ASSAY_COMMENT: Antiproliferative activity against human GTL16 cells
- Format: functional, cell-based
- EXPERIMENTAL_CONTEXT: GTL 16
pIC50: −log10 of the molar value.
Decision: pIC50 compared against 7; not below it gives 1.0, below it gives 0.0.

Recorded results for 3 molecules are shown here.
MOLECULE: Nc1cc(Oc2ccc(NC(=O)CC(=O)Nc3ccc(F)cc3)cc2F)ccn1
CLASS: 0.0

MOLECULE: O=C(Cc1ccc(F)cc1)NC(=O)Nc1ccc(Oc2ccnc3[nH]cc(CO)c23)c(F)c1
CLASS: 0.0

MOLECULE: Nc1nccc(Oc2ccc(NC(=O)NC(=O)Cc3ccc(F)cc3)cc2F)c1C#Cc1ccccn1
CLASS: 1.0

Record O=C(Cc1ccc(F)cc1)NC(=O)Nc1ccc(Oc2ccnc3[nH]cc(C(=O)CN4CCC(O)C4)c23)c(F)c1 (stereo not drawn) ; criterion: pIC50 no lower than 7. Met?
0.0

Record O=C(Cc1ccc(F)cc1)NC(=O)Nc1ccc(Oc2ccnc3[nH]cc(C(=O)NCc4cccnc4)c23)c(F)c1 ; criterion: pIC50 no lower than 7. Met?
0.0

Record Nc1nccc(Oc2ccc(NC(=O)NC(=O)Cc3ccc(F)cc3)cc2F)c1C#CCO ; criterion: pIC50 no lower than 7. Met?
1.0

Record COC(=O)c1c[nH]c2nccc(Oc3ccc(NC(=O)NC(=O)Cc4ccc(F)cc4)cc3F)c12 ; criterion: pIC50 no lower than 7. Met?
0.0

Record O=C(Cc1ccc(F)cc1)NC(=O)Nc1ccc(Oc2ccnc3[nH]c(-c4cccnc4)cc23)c(F)c1 ; criterion: pIC50 no lower than 7. Met?
1.0

###

Hepatocyte growth factor receptor (Homo sapiens, UniProt P08581) pIC50 data
Sequence (P08581 whole entry): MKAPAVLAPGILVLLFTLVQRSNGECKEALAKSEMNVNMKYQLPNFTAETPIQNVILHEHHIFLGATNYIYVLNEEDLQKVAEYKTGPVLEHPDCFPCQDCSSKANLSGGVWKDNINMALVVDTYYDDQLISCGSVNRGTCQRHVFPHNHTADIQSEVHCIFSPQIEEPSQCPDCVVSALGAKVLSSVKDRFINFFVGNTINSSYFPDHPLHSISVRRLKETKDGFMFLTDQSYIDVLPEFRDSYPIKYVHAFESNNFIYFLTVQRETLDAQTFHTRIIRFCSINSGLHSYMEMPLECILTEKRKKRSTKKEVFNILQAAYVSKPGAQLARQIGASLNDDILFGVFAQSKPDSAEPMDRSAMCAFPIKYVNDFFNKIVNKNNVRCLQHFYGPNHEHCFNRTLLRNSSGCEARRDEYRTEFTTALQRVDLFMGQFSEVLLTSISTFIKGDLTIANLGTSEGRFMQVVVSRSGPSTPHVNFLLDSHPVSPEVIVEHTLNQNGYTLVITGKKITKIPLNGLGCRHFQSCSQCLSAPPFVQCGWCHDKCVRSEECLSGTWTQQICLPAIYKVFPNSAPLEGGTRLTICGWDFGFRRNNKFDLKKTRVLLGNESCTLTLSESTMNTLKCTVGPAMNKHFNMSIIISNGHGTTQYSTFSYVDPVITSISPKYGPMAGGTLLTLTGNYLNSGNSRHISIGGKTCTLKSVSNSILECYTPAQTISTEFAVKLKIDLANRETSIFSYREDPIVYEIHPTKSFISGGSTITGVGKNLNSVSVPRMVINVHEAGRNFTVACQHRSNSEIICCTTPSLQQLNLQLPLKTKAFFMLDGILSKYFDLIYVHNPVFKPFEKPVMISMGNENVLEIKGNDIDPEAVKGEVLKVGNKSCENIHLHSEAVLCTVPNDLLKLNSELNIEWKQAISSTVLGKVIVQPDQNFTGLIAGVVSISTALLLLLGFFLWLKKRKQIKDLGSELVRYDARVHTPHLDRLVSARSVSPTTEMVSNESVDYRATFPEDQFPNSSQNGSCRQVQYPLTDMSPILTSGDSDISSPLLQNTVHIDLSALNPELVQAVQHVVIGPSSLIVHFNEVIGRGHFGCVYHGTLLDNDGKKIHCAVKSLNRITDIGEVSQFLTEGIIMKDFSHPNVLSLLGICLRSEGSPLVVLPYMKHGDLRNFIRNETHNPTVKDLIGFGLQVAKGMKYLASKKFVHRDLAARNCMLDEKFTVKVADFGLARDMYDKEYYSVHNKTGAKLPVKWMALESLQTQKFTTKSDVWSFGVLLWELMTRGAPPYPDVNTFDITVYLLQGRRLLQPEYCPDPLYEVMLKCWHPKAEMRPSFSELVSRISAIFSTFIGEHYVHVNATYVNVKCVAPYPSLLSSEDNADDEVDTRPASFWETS
Scale for pIC50: -log10 of concentration given in mol/L; no unit attached.

Solved cases below.
SMILES_STRING: COC(=O)c1c[nH]c2nccc(Oc3ccc(NC(=O)NC(=O)Cc4ccc(F)cc4)cc3F)c12
QUANTITATIVE_RESULT: 8.30
//
SMILES_STRING: CN(C)CC#Cc1c(Oc2ccc(NC(=O)NC(=O)Cc3ccc(F)cc3)cc2F)ccnc1N
QUANTITATIVE_RESULT: 8.40

What pIC50 appears in the records for this compound with Hepatocyte growth factor receptor (Homo sapiens, UniProt P08581)? CN1CCN(CC(=O)c2c[nH]c3nccc(Oc4ccc(NC(=O)NC(=O)Cc5ccc(F)cc5)cc4F)c23)CC1
7.96

What pIC50 appears in the records for this compound with Hepatocyte growth factor receptor (Homo sapiens, UniProt P08581)? O=C(Cc1ccc(F)cc1)NC(=O)Nc1ccc(Oc2ccnc3[nH]cc(CO)c23)c(F)c1
8.40

What pIC50 appears in the records for this compound with Hepatocyte growth factor receptor (Homo sapiens, UniProt P08581)? Nc1cc(Oc2ccc(NC(=O)NC(=O)Cc3ccc(F)cc3)cc2F)ccn1
7.46

###

Cytochrome P450 3A4 (Homo sapiens, UniProt P08684) IC50 data
Sequence (P08684 whole entry): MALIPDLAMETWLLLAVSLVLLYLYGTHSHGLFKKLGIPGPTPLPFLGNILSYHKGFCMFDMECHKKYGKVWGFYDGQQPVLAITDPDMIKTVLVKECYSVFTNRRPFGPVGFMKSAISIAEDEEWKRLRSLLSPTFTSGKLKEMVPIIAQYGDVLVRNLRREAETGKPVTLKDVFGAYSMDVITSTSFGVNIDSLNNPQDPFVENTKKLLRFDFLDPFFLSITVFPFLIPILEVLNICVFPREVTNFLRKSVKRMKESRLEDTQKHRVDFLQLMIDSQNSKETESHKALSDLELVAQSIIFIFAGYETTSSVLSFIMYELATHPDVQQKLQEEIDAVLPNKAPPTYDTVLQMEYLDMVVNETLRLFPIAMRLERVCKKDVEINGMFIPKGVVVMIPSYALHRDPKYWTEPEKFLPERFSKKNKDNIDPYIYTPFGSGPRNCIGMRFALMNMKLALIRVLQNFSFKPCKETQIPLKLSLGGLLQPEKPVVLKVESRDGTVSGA
Respond numerically; units are µM and should not be typed.

SMILES_STRING: Nc1nccc(Oc2ccc(NC(=O)NC(=O)Cc3ccc(F)cc3)cc2F)c1C#Cc1ccccn1
VALUE_KIND: IC50
QUANTITATIVE_RESULT: 37

Please turn your attention to the following entry.
What IC50 appears in the records for this molecule with Cytochrome P450 3A4 (Homo sapiens, UniProt P08684)? C#Cc1c(Oc2ccc(NC(=O)NC(=O)Cc3ccc(F)cc3)cc2F)ccnc1N
0.8

###

Reported Stability is given for each of the following compounds.
- System: Liver microsomes
- ASSAY_COMMENT: Metabolic stability in human liver microsomes at 3 uM after 10 mins
- Format: ADME, Microsome
Respond numerically; units are nmol/min/mg and should not be typed.

Solved cases below.
SMILES_STRING: O=C(Cc1ccc(F)cc1)NC(=O)Nc1ccc(Oc2ccnc3[nH]cc(-c4cccnc4)c23)c(F)c1
MEASUREMENT_UNIT: nmol/min/mg
QUANTITATIVE_RESULT: 0.038

SMILES_STRING: O=C(Cc1ccc(F)cc1)NC(=O)Nc1ccc(Oc2ccnc3[nH]ccc23)c(F)c1
MEASUREMENT_UNIT: nmol/min/mg
QUANTITATIVE_RESULT: 0.015

SMILES_STRING: Nc1cc(Oc2ccc(NC(=O)NC(=O)Cc3ccc(F)cc3)cc2F)ccn1
MEASUREMENT_UNIT: nmol/min/mg
QUANTITATIVE_RESULT: 0

SMILES_STRING: O=C(Cc1ccc(F)cc1)NC(=O)Nc1ccc(Oc2ccnc3[nH]c(-c4cccnc4)cc23)c(F)c1
MEASUREMENT_UNIT: nmol/min/mg
QUANTITATIVE_RESULT: 0.016

Please turn your attention to the following entry.
What Stability appears in the records for this compound with Liver microsomes? Nc1nccc(Oc2ccc(NC(=O)NC(=O)Cc3ccc(F)cc3)cc2F)c1C#Cc1ccccn1
0

###

- ASSAY_COMMENT: AUC (0 to 8 hrs) in mouse at 50 mg/kg, po
- Type: ADME, organism-based
- Design: time < 8 hr, dose 50 mg/kg, route oral
- EXPERIMENTAL_CONTEXT: plasma
Reported AUC(0-t) at 8 h is given for each of the following compounds.
Respond numerically; units are µM·h and should not be typed.

Solved cases below.
SMILES_STRING: O=C(Cc1ccc(F)cc1)NC(=O)Nc1ccc(Oc2ccnc3[nH]c(-c4cccnc4)cc23)c(F)c1
AUC(0-t) at 8 h (µM·h): 11.4
--
SMILES_STRING: Nc1nccc(Oc2ccc(NC(=O)NC(=O)Cc3ccc(F)cc3)cc2F)c1C#Cc1ccccn1
AUC(0-t) at 8 h (µM·h): 85

Please turn your attention to the following entry.
Look up AUC(0-t) at 8 h: O=C(Cc1ccc(F)cc1)NC(=O)Nc1ccc(Oc2ccnc3[nH]cc(-c4cccnc4)c23)c(F)c1
34

###

Reported pIC50 is given for each of the following molecules.
- ASSAY_COMMENT: Antiproliferative activity against human GTL16 cells
- Type: functional, cell-based
- EXPERIMENTAL_CONTEXT: GTL 16
Scale for pIC50: -log10 of concentration given in mol/L; no unit attached.

Solved cases below.
SMILES_STRING: O=C(Cc1ccc(F)cc1)NC(=O)Nc1ccc(Oc2ccnc3[nH]ccc23)c(F)c1
pIC50: 6.82
--
SMILES_STRING: O=C(Cc1ccc(F)cc1)NC(=O)Nc1ccc(Oc2ccnc3[nH]cc(-c4cccnc4)c23)c(F)c1
pIC50: 7.70

Look up pIC50: NCC#Cc1c(Oc2ccc(NC(=O)NC(=O)Cc3ccc(F)cc3)cc2F)ccnc1N
6.60

Look up pIC50: O=C(CC(=O)Nc1ccc(Oc2ccnc3[nH]ccc23)c(F)c1)Nc1ccc(F)cc1
5.97

Look up pIC50: C#Cc1c(Oc2ccc(NC(=O)NC(=O)Cc3ccc(F)cc3)cc2F)ccnc1N
7.40

Look up pIC50: Nc1nc(-c2c[nH]c3nccc(Oc4ccc(NC(=O)NC(=O)Cc5ccc(F)cc5)cc4F)c23)cs1
7.52

Look up pIC50: CN1CCN(CC(=O)c2c[nH]c3nccc(Oc4ccc(NC(=O)NC(=O)Cc5ccc(F)cc5)cc4F)c23)CC1
5.65

Look up pIC50: Nc1cc(Oc2ccc(NC(=O)NC(=O)Cc3ccc(F)cc3)cc2F)ccn1
6.54

Look up pIC50: CN(C)CC(=O)c1c[nH]c2nccc(Oc3ccc(NC(=O)NC(=O)Cc4ccc(F)cc4)cc3F)c12
5.98

Look up pIC50: CN(C)CC#Cc1c(Oc2ccc(NC(=O)NC(=O)Cc3ccc(F)cc3)cc2F)ccnc1N
6.66
